Measurement notes: Apparent permeability of the compound
Format: ADME
Conditions used: not told
Property measured: Papp

INSERT INTO results (query_smiles, property_measured, data_value) VALUES
  ('CCC(=O)CCCCC[C@H](NC(=O)C1CN(C)C1)c1[nH]c(-c2ccccc2)nc1C(N)=O', 'Papp', '1.1 ×10⁻⁶ cm/s');

Now for the molecule whose Papp we want.
IN: Using the record for CCC(=O)CCCCC[C@H](NC(=O)[C@H]1CC12CCN(C)CC2)c1[nH]c(-c2ccc(F)cc2)nc1C#N , report its Papp.
OUT: 1.7 ×10⁻⁶ cm/s

* * *

Tested target: Histone deacetylase 2 (Homo sapiens)
Sequence (Q92769 whole entry): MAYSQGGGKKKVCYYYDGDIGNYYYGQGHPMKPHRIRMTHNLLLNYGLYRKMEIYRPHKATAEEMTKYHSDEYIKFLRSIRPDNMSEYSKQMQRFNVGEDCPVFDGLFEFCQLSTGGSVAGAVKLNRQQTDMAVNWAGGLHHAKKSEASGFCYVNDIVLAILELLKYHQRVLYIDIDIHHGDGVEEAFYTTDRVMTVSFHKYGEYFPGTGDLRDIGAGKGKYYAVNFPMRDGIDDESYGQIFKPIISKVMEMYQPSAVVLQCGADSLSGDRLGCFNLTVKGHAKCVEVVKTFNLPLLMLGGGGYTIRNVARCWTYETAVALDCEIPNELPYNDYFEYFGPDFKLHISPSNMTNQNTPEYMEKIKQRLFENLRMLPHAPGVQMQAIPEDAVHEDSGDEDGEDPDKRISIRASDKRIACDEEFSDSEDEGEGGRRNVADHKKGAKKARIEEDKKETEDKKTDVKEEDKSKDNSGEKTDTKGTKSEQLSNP
pIC50: −log10 of the molar value.
Classification field: 1 (yes) = pIC50 at or over 7; 0 (no) = pIC50 under 7.

Some entries whose results are on file:
INSERT INTO measurements (query_smiles, assigned_label) VALUES
  ('CCC(=O)CCCCC[C@H](NC(=O)[C@H]1CC12CCN(C)CC2)c1[nH]c(-c2ccc(F)cc2)nc1C(N)=O', '1 (yes)'),
  ('CCC(=O)CCCCC[C@H](NC(=O)[C@H]1CC12CCN(CC)CC2)c1[nH]c(-c2ccc(F)cc2)nc1C(N)=O', '1 (yes)'),
  ('CCC(=O)CCCCC[C@H](NC(=O)C1CN(C)C1)c1[nH]c(-c2ccc(F)cc2)nc1C(N)=O', '1 (yes)');

IN: Could you please find out whether CCC(=O)CCCCC[C@H](NC(=O)[C@H]1CC12CCN(C)CC2)c1[nH]c(-c2cc3ccccc3nc2OC)nc1C#N has pIC50 that meets 7 or exceeds it?
OUT: 0 (no)

* * *

Recorded IC50 for the following compounds
Tested target: Protein deacetylase HDAC6 (Homo sapiens, UniProt Q9UBN7)
Sequence (Q9UBN7 whole entry): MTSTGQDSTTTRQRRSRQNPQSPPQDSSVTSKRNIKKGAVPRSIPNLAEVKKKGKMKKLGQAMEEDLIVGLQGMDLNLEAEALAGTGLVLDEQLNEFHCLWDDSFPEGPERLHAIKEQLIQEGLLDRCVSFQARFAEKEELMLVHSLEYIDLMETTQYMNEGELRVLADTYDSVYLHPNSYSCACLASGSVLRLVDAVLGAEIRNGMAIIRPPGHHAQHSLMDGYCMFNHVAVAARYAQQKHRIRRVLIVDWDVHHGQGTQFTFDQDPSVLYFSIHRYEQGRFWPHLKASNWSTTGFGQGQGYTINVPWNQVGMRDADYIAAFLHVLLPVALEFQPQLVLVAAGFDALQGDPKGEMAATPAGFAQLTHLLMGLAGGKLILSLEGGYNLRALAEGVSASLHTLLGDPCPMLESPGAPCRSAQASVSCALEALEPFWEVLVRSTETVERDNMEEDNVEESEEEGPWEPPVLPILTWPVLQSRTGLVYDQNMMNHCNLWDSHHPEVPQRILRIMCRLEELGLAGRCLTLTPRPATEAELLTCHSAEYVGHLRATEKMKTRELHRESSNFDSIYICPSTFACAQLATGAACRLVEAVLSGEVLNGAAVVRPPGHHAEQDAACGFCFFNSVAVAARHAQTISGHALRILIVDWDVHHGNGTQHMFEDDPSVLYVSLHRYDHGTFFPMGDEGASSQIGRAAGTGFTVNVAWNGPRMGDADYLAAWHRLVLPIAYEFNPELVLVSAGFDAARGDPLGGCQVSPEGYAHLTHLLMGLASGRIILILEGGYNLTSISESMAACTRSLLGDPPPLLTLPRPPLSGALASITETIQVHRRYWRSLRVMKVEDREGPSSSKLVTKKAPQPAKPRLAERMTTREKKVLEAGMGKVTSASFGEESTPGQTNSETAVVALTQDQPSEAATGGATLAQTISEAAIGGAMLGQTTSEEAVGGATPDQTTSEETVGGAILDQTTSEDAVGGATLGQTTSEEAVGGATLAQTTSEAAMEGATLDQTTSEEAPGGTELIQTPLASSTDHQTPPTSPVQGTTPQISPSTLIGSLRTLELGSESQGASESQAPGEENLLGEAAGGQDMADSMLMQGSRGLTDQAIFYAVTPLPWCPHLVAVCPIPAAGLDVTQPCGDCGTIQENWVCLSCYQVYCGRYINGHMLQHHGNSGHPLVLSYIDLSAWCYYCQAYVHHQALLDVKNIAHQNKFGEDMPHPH

INSERT INTO measurements (compound, tested_target, property_measured, data_value) VALUES
  ('CCC(=O)CCCCCC(NC(=O)c1cncs1)c1[nH]c(-c2ccccc2)nc1C(N)=O (configuration not stated)', 'Protein deacetylase HDAC6 (Homo sapiens, UniProt Q9UBN7)', 'IC50', '16.4 µM');

Now for the compound whose IC50 we want.
IN: I'm curious: which IC50 was measured for CCC(=O)CCCCC[C@H](NC(=O)c1ccon1)c1[nH]c(-c2ccc(F)cc2)nc1C#N tested on Protein deacetylase HDAC6 (Homo sapiens, UniProt Q9UBN7)?
OUT: > 45 µM

* * *

# UniProt O15379: log10 IC50 values follow
# Sequence (O15379 whole entry): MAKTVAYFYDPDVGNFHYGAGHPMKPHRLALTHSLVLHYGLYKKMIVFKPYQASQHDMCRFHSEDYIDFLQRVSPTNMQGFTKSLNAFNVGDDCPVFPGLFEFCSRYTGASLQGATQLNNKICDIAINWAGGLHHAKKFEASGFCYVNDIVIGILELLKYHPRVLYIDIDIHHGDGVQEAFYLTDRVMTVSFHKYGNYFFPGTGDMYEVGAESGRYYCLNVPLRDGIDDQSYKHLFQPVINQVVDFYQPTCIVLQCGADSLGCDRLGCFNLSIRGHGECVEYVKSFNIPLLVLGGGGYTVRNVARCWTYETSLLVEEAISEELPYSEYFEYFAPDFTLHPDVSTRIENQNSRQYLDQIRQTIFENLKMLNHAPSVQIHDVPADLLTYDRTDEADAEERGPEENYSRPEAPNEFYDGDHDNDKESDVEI
Note: values are log10 of IC50 expressed in nM.

INSERT INTO measurements (query_smiles, tested_target, data_value) VALUES
  ('CCC(=O)CCCCC[C@H](NC(=O)[C@H]1CC12CCN(C)CC2)c1[nH]c(-c2ccccc2F)nc1C#N', 'UniProt O15379', 1.03),
  ('CCC(=O)CCCCC[C@H](NC(=O)C1CN(C)C1)c1[nH]c(-c2ccc(F)cc2)nc1C(N)=O', 'UniProt O15379', 0.56),
  ('CCC(=O)CCCCC[C@H](NC(=O)C1CN(C)C1)c1[nH]c(-c2ccccc2)nc1C(N)=O', 'UniProt O15379', 0.40),
  ('CCC(=O)CCCCC[C@H](NC(=O)[C@H]1CC12CCN(C)CC2)c1[nH]c(-c2ccc(F)cc2F)nc1C#N', 'UniProt O15379', 1.28),
  ('CCC(=O)CCCCC[C@H](NC(=O)[C@H]1CC12CCN(C)CC2)c1[nH]c(-c2cc3ccccc3nc2OC)nc1C#N', 'UniProt O15379', 2.00);

IN: Using the record for CCC(=O)CCCCC[C@H](NC(=O)[C@H]1CC12CCN(C)CC2)c1[nH]c(-c2ccc3nc(C)ccc3c2)nc1C#N , report its log10 IC50.
OUT: -0.70

IN: # repeat for CCC(=O)CCCCC[C@H](NC(=O)CN(C)C)c1[nH]c(-c2ccc(F)cc2)nc1C#N
OUT: 1.43

IN: # repeat for CCC(=O)CCCCC[C@H](NC(=O)[C@H]1CC12CCN(CC)CC2)c1[nH]c(-c2ccc(F)cc2)nc1C(N)=O
OUT: -0.15

* * *

Tested target: Histone deacetylase 2 (Homo sapiens)
Recorded pIC50 for the following molecules
Quick note: pIC50 means taking -log10 of the concentration in moles per liter.

INSERT INTO results (molecule, property_measured, data_value) VALUES
  ('CCC(=O)CCCCCC(NC(=O)c1cncs1)c1[nH]c(-c2ccccc2)nc1C(=O)N1CCOCC1 (configuration not stated)', 'pIC50', 6.80),
  ('CCC(=O)CCCCC[C@H](NC(=O)c1ccon1)c1[nH]c(-c2ccc(F)cc2)nc1C#N', 'pIC50', 6.79),
  ('CCC(=O)CCCCC[C@H](NC(=O)[C@H]1CC12CCN(C)CC2)c1[nH]c(-c2ccc(-c3cccnc3)cc2)nc1C#N', 'pIC50', 8.77),
  ('CCC(=O)CCCCC[C@H](NC(=O)C1CCOCC1)c1[nH]c(-c2ccc(F)cc2)nc1C(N)=O', 'pIC50', 7.13),
  ('CCC(=O)CCCCCC(NC(=O)c1cncs1)c1[nH]c(-c2ccccc2)nc1C(=O)NCCN(C)C (configuration not stated)', 'pIC50', 7.27);

IN: Using the record for CCC(=O)CCCCC[C@H](NC(=O)CN(C)C)c1[nH]c(-c2ccc(F)cc2)nc1C#N , report its pIC50.
OUT: 6.66

IN: # repeat for CCC(=O)CCCCC[C@H](NC(=O)[C@H]1CC12CCN(C)CC2)c1[nH]c(-c2ccc3nc(C)ccc3c2)nc1C#N
OUT: 8.82

IN: # repeat for CCC(=O)CCCCC[C@H](NC(=O)[C@H]1CC12CCN(C)CC2)c1[nH]c(-c2ccc3nn(C)cc3c2)nc1C#N
OUT: 8.68

IN: # repeat for CCC(=O)CCCCC[C@H](NC(=O)[C@H]1CC12CCN(C)CC2)c1[nH]c(-c2ccc(C(F)(F)F)cc2)nc1C#N
OUT: 7.81

IN: # repeat for CCC(=O)CCCCC[C@H](NC(=O)[C@H]1CC12CCN(C)CC2)c1[nH]c(-c2ccc(F)cc2F)nc1C#N
OUT: 6.81

IN: # repeat for CCC(=O)CCCCC[C@H](NC(=O)C1CN(C)C1)c1[nH]c(-c2ccccc2)nc1C(N)=O
OUT: 7.74

IN: # repeat for CCC(=O)CCCCCC(NC(=O)c1cncs1)c1[nH]c(-c2ccccc2)nc1C(=O)NC (configuration not stated)
OUT: 7.04

IN: # repeat for CCC(=O)CCCCC[C@H](NC(=O)c1cncs1)c1[nH]c(-c2ccc(F)cc2)nc1C#N
OUT: 7.29

IN: # repeat for CCC(=O)CCCCCC(NC(=O)c1cncs1)c1[nH]c(-c2ccccc2)nc1C(N)=O (configuration not stated)
OUT: 7.57

IN: # repeat for CCC(=O)CCCCC[C@H](NC(=O)[C@H]1CC12CCN(C)CC2)c1[nH]c(-c2cccnc2OC)nc1C#N
OUT: 6.64

IN: # repeat for CCC(=O)CCCCC[C@H](NC(=O)[C@H]1CC12CCN(CC)CC2)c1[nH]c(-c2ccc(F)cc2)nc1C#N
OUT: 7.93

IN: # repeat for CCC(=O)CCCCC[C@H](NC(=O)C12CCN(CC1)CC2)c1[nH]c(-c2ccc(F)cc2)nc1C#N
OUT: 7.57

* * *

Recorded bioavailability for the following compounds
Measurement notes: Oral bioavailability in Wistar Han rat at 10 mg/kg
Format: ADME, organism-based
Conditions used: in vivo
Just the number in %, nothing appended.

INSERT INTO results (query_smiles, property_measured, data_value) VALUES
  ('CCC(=O)CCCCC[C@H](NC(=O)[C@H]1CC12CCN(C)CC2)c1[nH]c(-c2ccc(F)cc2)nc1C#N', 'bioavailability', 1);

Now for the compound whose bioavailability we want.
IN: Using the record for CCC(=O)CCCCC[C@H](NC(=O)C1CN(C)C1)c1[nH]c(-c2ccccc2)nc1C(N)=O , report its bioavailability.
OUT: 0

* * *

Recorded IC50 for the following compounds
Tested target: Histone deacetylase 8 (Homo sapiens, UniProt Q9BY41)
Sequence (Q9BY41 whole entry): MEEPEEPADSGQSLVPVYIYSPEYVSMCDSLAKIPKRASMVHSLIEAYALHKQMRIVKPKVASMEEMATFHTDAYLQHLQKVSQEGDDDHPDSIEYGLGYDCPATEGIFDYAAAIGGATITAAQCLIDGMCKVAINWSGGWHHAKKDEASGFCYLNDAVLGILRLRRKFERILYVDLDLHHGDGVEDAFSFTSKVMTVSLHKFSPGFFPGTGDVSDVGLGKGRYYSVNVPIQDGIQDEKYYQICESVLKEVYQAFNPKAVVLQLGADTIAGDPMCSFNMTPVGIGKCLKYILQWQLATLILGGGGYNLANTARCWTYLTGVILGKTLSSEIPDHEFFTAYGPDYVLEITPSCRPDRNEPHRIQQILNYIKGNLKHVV
Just the number in µM, nothing appended.

INSERT INTO assay_data (compound, value_units, data_value) VALUES
  ('CCC(=O)CCCCC[C@H](NC(=O)[C@H]1CC12CCN(C)CC2)c1[nH]c(-c2ccccc2F)nc1C#N', 'µM', 39.6);

IN: I'm curious: which IC50 was measured for CCC(=O)CCCCCC(NC(=O)c1cncs1)c1[nH]c(-c2ccccc2)nc1C(=O)NCCN(C)C (stereo not drawn) tested on Histone deacetylase 8 (Homo sapiens, UniProt Q9BY41)?
OUT: 5.34

IN: # repeat for CCC(=O)CCCCC[C@H](NC(=O)[C@H]1CC12CCN(C)CC2)c1[nH]c(-c2ccc3nn(C)cc3c2)nc1C#N
OUT: 12.4
